- target.or.system: Programmed cell death protein 1/Programmed cell death 1 ligand 1 (Homo sapiens, UniProt Q15116+Q9NZQ7)
- Sequence (Q15116 whole entry): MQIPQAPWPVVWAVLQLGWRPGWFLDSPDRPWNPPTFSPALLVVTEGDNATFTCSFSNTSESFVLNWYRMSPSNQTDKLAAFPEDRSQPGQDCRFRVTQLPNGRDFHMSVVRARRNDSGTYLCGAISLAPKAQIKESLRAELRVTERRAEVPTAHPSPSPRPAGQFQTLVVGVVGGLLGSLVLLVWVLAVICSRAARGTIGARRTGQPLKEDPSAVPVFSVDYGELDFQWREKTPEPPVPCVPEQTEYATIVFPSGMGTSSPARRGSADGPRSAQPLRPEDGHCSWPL
- Sequence (Q9NZQ7 whole entry): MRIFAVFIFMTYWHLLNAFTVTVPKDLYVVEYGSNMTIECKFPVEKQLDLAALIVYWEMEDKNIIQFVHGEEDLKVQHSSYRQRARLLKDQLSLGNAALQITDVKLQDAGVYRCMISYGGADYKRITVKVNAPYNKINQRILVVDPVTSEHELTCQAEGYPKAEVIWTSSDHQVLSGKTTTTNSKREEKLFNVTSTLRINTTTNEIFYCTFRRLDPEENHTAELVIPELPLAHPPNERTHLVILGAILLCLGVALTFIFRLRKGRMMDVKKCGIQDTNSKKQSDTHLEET
- procedure.text: Inhibition of PD-1/PD-L1 (unknown origin) protein-protein interaction incubated for 15 mins by TR-FRET assay
Checkbox rule: IC50 lower than 20 nM = Fulfilled; IC50 not lower than 20 nM = Not fulfilled.

>  <smi>
COc1nc(O[C@H]2CCc3c(-c4ccc5c(c4)OCCO5)cccc32)c(Cl)cc1CNCCO

>  <classification>
Fulfilled

$$$$
>  <smi>
COc1nc(O[C@H]2CCCc3c(-c4ccccc4)cccc32)ccc1CNCCO

>  <classification>
Not fulfilled

$$$$
>  <smi>
COc1cccc(-c2cccc3c2CC[C@@H]3Oc2nc(OC)c(CNCCO)cc2Cl)c1

>  <classification>
Not fulfilled

$$$$
>  <smi>
COc1nc(O[C@H]2CCc3c(-c4cccc(F)c4)cccc32)c(Cl)cc1CNCCO

>  <classification>
Not fulfilled

$$$$
>  <smi>
COc1nc(O[C@H]2CCc3c(-c4ccc5c(c4)OCO5)cccc32)c(Cl)cc1CNCCO

>  <classification>
Not fulfilled

$$$$

Request: Take the compound COc1nc(O[C@@H]2CCc3c(-c4ccccc4)cccc32)ccc1CNCCO and say whether its IC50 is less than 20 nM.
Result: Not fulfilled

Request: What about COc1nc(O[C@H]2CCc3c(-c4ccc5c(c4)OCCO5)cccc32)c(Cl)cc1CN1CC[C@H](O)C1 ?
Result: Fulfilled

Request: What about COc1nc(O[C@H]2CCc3c(-c4ccccc4)cccc32)ccc1CNCCO ?
Result: Not fulfilled

Request: Would you mind doing COc1nc(O[C@H]2CCc3c(-c4ccc5[nH]ccc5c4)cccc32)c(Cl)cc1CNCCO as well?
Result: Not fulfilled
